I'd be grateful if you could share measured IC50, pseudovirus neutralization for these entries.
target: HIV-1 MGRM-D-001 envelope glycoprotein (Env) on pseudovirus (HIV-1); experiment: cell-based or functional assay

PGT-136 monoclonal antibody (antibody, V domains shown) VH: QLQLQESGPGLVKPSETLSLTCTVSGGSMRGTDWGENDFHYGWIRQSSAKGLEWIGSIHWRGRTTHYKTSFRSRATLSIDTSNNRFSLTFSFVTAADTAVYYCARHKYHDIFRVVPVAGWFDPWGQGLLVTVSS VL: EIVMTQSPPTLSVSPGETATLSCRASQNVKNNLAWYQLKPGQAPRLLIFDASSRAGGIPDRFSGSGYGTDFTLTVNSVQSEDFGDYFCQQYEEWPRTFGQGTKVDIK; > 10 µg/mL
PGT-123 monoclonal antibody (antibody, V domains shown) VH: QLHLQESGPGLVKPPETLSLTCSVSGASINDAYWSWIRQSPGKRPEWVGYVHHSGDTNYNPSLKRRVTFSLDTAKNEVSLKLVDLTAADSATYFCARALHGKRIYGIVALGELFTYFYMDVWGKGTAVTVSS VL: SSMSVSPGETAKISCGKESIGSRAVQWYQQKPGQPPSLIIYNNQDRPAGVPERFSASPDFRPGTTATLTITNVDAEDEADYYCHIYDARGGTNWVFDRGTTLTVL; 0.215 µg/mL

Challenge: Suppose we examine the binder PGT-130 monoclonal antibody (antibody, V domains shown) VH: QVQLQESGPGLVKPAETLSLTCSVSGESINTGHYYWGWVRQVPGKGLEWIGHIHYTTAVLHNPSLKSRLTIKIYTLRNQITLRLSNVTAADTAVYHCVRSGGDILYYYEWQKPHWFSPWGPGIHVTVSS VL: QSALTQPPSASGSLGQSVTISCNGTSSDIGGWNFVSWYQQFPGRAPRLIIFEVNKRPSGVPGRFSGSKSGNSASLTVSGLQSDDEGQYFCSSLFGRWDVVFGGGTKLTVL ; what IC50, pseudovirus neutralization value has been reported?
Response given: > 10 µg/mL

The reported measurements were obtained from patent US20200024330A1.
